Settings: buffer; pH 7.4; 200.0 µM
MEASURE: solubility kinetic (µg/mL)
Please respond with the number in µg/mL and leave the unit unwritten.

Please review the entries below; each comes with its answer.
COMPOUND: c1ccc(OCc2nc(-c3ccncc3)no2)cc1
QUANTITY UNIT: µg/mL
READOUT NUMBER: 36.5
//
COMPOUND: CC(C)c1ccc2nc(N)sc2c1
QUANTITY UNIT: µg/mL
READOUT NUMBER: 28.3
//
COMPOUND: O=C(CSc1nc(-c2ccccc2)ns1)N1CCOCC1
QUANTITY UNIT: µg/mL
READOUT NUMBER: 1
//
COMPOUND: CCN(CC)S(=O)(=O)c1ccc(Cl)c(NC2=NCCCCC2)c1
QUANTITY UNIT: µg/mL
READOUT NUMBER: 32.9

Input: Kindly indicate its recorded solubility kinetic. Item: O=C(Oc1cc(=O)oc2c1c(=O)n1c3c(cccc23)CC1)c1ccccc1
Output: 33

Input: Kindly indicate its recorded solubility kinetic. Item: CC(=O)N1CCN(c2ccc(NC(=O)c3ccccc3)cc2)CC1
Output: 40.5

Input: Kindly indicate its recorded solubility kinetic. Item: CC(OC(=O)c1ccc(Cl)nc1)C(=O)NC1CCCC1 (centres undefined)
Output: 24.7

Input: Kindly indicate its recorded solubility kinetic. Item: Nc1cc(Oc2ccc(Cl)cc2Cl)nc(N)n1
Output: 39.5

Input: Kindly indicate its recorded solubility kinetic. Item: Cc1nc(N2CCN(c3ccc(Cl)cc3)CC2)[nH]c(=O)c1C
Output: 1.6

---

Conditions: buffer; pH 7.4; 200.0 µM
We begin with a simple list: items and their reported solubility kinetic.
Please respond with the number in µg/mL and leave the unit unwritten.

Please review the entries below; each comes with its answer.
MOLECULE: COc1ccc(OC)c(NC(=O)CCN2CCN(C)CC2)c1.Cl
MEASURE: solubility kinetic
READOUT NUMBER: 44.2
--
MOLECULE: O=C(OCC(=O)N1CCc2ccccc21)c1ccncc1
MEASURE: solubility kinetic
READOUT NUMBER: 33.1
--
MOLECULE: Oc1ccc(-c2nc3ccccc3s2)cc1
MEASURE: solubility kinetic
READOUT NUMBER: 6.6
--
MOLECULE: COc1cc2c(cc1OC)CN(C(=O)CCN1C(=O)C3CCCCC3C1=O)CC2 (stereo not given)
MEASURE: solubility kinetic
READOUT NUMBER: 46.2

Input: Kindly indicate its recorded solubility kinetic. Item: CCc1ccccc1NC(=S)N(CCN(C)C)C(C)c1cccnc1 (stereo not given)
Output: 50.9

Input: Kindly indicate its recorded solubility kinetic. Item: Cn1c(-c2cccs2)nc2ccccc21
Output: 30.4

Input: Kindly indicate its recorded solubility kinetic. Item: CC(=O)c1c(-c2ccccc2)[nH]c2ccccc12
Output: 1.4

Input: Kindly indicate its recorded solubility kinetic. Item: NC(=O)C1CCN(c2oc(-c3cccs3)nc2S(=O)(=O)c2ccc(Cl)cc2)CC1
Output: 51.9

Input: Kindly indicate its recorded solubility kinetic. Item: Cc1cccc(-n2c(/C=C/c3ccccn3)nc3ccccc3c2=O)c1
Output: 0.5

Input: Kindly indicate its recorded solubility kinetic. Item: O=C(CNC(=O)c1ccc(Cl)cc1Cl)OC1CCCCC1=O (stereo not given)
Output: 39.4

Input: Kindly indicate its recorded solubility kinetic. Item: Nc1nc(NCc2ccccc2)nc(NCCO)c1[N+](=O)[O-]
Output: 43.4
